Measured values drawn from patent US6768007B2 for this set.

system: HIV-1 (IIIB isolate); assay: Anti-HIV activity in H9 lymphocytes (p24 antigen ELISA); type: cell-based; conditions: H-9 lymphocytes; ratio of IC50 to EC50
assay-endpoint: Therapeutic Index (TI = IC50/EC50)

compound	study-system	reading
CC(=O)OCc1cc2c(C)cc(=O)oc2c2c1OC(C)(C)[C@H](OC(=O)[C@@]13CCC(C)(C(=O)O1)C3(C)C)[C@@H]2OC(=O)[C@@]12CCC(C)(C(=O)O1)C2(C)C (relative stereo) [Compound 9]	HIV-1 (IIIB isolate)	78.9
COP(=O)(OC)OCc1cc2c(C)cc(=O)oc2c2c1OC(C)(C)[C@H](OC(=O)[C@@]13CCC(C)(C(=O)O1)C3(C)C)[C@@H]2OC(=O)[C@@]12CCC(C)(C(=O)O1)C2(C)C (relative stereo) [Compound 13]	HIV-1 (IIIB isolate)	3.79
CC1(C)Oc2ccc3cc(CO)c(=O)oc3c2[C@@H](OC(=O)[C@@]23CCC(C)(C(=O)O2)C3(C)C)[C@H]1OC(=O)[C@@]12CCC(C)(C(=O)O1)C2(C)C (relative stereo) [Compound 10]	HIV-1 (IIIB isolate)	188,032
Cc1cc(=O)oc2c3c(c(CO)cc12)OC(C)(C)[C@H](OC(=O)[C@@]12CCC(C)(C(=O)O1)C2(C)C)[C@@H]3OC(=O)[C@@]12CCC(C)(C(=O)O1)C2(C)C (relative stereo) [Compound 12]	HIV-1 (IIIB isolate)	30,900
Cc1c(CBr)c(=O)oc2c3c(ccc12)OC(C)(C)[C@H](OC(=O)[C@@]12CC[C@@](C)(C(=O)O1)C2(C)C)[C@@H]3OC(=O)[C@@]12CC[C@@](C)(C(=O)O1)C2(C)C (relative stereo) [Compound 3]	HIV-1 (IIIB isolate)	101,000
CC(=O)OCc1c(C)c2ccc3c(c2oc1=O)[C@@H](OC(=O)[C@@]12CC[C@@](C)(C(=O)O1)C2(C)C)[C@@H](OC(=O)[C@@]12CC[C@@](C)(C(=O)O1)C2(C)C)C(C)(C)O3 (relative stereo) [Compound 8]	HIV-1 (IIIB isolate)	157,000

Lookup: What measured Therapeutic Index (TI = IC50/EC50) goes with CC1(C)Oc2ccc3cc(CBr)c(=O)oc3c2[C@@H](OC(=O)[C@@]23CC[C@@](C)(C(=O)O2)C3(C)C)[C@H]1OC(=O)[C@@]12CC[C@@](C)(C(=O)O1)C2(C)C (relative stereo) [Compound 1] ?
Found: 40

Lookup: What measured Therapeutic Index (TI = IC50/EC50) goes with CCN(CC)Cc1cc2ccc3c(c2oc1=O)[C@@H](OC(=O)[C@@]12CC[C@@](C)(C(=O)O1)C2(C)C)[C@@H](OC(=O)[C@@]12CC[C@@](C)(C(=O)O1)C2(C)C)C(C)(C)O3 (relative stereo) [Compound 16] ?
Found: 62

Lookup: What measured Therapeutic Index (TI = IC50/EC50) goes with CC1(C)Oc2c(CBr)cc3ccc(=O)oc3c2[C@@H](OC(=O)[C@@]23CCC(C)(C(=O)O2)C3(C)C)[C@H]1OC(=O)[C@@]12CCC(C)(C(=O)O1)C2(C)C (relative stereo) [Compound 4] ?
Found: 113
